- protocol_description: Blood/brain exposure to NBP-14 after intranasal administration (PK assessment)
- Assay type: in vivo, mice
- condition_summary: 5XFAD, mouse, blood, inhaled or intranasal, 10 mg/kg, 5XFAD mice, 10 mg/kg intranasal twice a week, T = 14W [terminal], sampling 30 min after administration; read-out: Blood Concentration
Where a SMILES comes first, the peptide text is derived from it.
test_readout: level at 0.5 h

level at 0.5 h reported for this compound CSCC[C@@H]1NC(=O)[C@H](Cc2ccc(O)cc2)NC(=O)[C@H](CO)NC(=O)[C@H](CO)NC(=O)[C@H](Cc2c[nH]c3ccccc23)NC(=O)[C@H](CCCNC(=N)N)NC(=O)[C@H](Cc2c[nH]cn2)NC(=O)[C@H](Cc2ccccc2)NC(=O)[C@H](CCC(=O)O)NC(=O)[C@H](C)NC(=O)[C@H](CCCCN)NC(=O)[C@H](Cc2c[nH]c3ccccc23)NC(=O)[C@H](Cc2c[nH]cn2)NC(=O)[C@H](C(C)C)NC1=O [NBP-14] (HELM PEPTIDE1{A.E.F.H.R.W.S.S.Y.M.V.H.W.K}$PEPTIDE1,PEPTIDE1,1:R1-14:R2$$$V2.0) : 202 ng/mL
